# TARGET OF ASSAY: BRD2-BD2 (Homo sapiens, UniProt P25440)
# Construct: two similar tandem bromodomains (BD1 and BD2)
# Sequence (P25440 344-453 limits assumed): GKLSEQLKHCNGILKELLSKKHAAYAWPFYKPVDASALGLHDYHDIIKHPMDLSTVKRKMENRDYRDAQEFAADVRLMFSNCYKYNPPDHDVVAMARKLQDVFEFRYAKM
# MEASUREMENT DESCRIPTION: BromoKdELECT assay
PARAMETER MEASURED: pKd
Kindly note that pKd refers to -log10 of the concentration in mol/L and answer with the value alone.

Read off the recorded pKd for CNC(=O)[C@@H](CC1CCN(C(=O)Cc2ccc3[nH]c(=O)cc(C)c3c2)CC1)NC(=O)c1ccc(-c2ccc(C)cc2C)cn1
6.96

###

# TARGET OF ASSAY: BRD3-BD2 (Homo sapiens)
# Construct: two similar tandem bromodomains (BD1 and BD2)
# Sequence (Q15059 306-415 limits assumed): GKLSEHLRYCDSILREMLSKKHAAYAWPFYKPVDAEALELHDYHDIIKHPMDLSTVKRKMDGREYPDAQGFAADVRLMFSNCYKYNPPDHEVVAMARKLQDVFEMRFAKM
# MEASUREMENT DESCRIPTION: BromoKdELECT assay
PARAMETER MEASURED: Kd (nM)
# output: bare number, implied unit nM

Read the entry CNC(=O)[C@@H](CC1CCN(C(=O)Cc2ccc3[nH]c(=O)cc(C)c3c2)CC1)NC(=O)c1ccc(-c2ccc(C)cc2C)cn1 [CDD-787] and write its reported Kd.
770

###

# TARGET OF ASSAY: BRD3-BD1 (Homo sapiens, UniProt Q15059)
# Construct: two similar tandem bromodomains (BD1 and BD2); purchased Eurofins DiscoverX (Fremont, CA); host or cells: E. coli host derived from the BL21 strain, T7 phage
# Sequence (Q15059 34-140 limits assumed): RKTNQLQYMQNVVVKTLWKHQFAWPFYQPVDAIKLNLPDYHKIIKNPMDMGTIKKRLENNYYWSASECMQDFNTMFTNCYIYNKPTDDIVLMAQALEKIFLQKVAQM
# MEASUREMENT DESCRIPTION: BromoKdELECT assay
# Assay type: binding
# MEASUREMENT SETUP: BromoKdELECT; read-out: IC50 against BRD3-BD1
PARAMETER MEASURED: IC50 (nM)
Unit nM implied. Number only.

Determine from records and report IC50 for CNC(=O)[C@@H](CC1CCN(C(=O)Cc2ccc3[nH]c(=O)cc(C)c3c2)CC1)NC(=O)c1ccc(-c2ccc(C)cc2C)cn1
0.13

###

# TARGET OF ASSAY: BRDT-BD2 (Homo sapiens, UniProt Q58F21)
# Construct: two similar tandem bromodomains (BD1 and BD2); made in house; host or cells: bacteria (pET15b or pET28b vector)
# MEASUREMENT DESCRIPTION: AlphaScreen competition assay with biotinylated JQ1
# Format: binding
# MEASUREMENT SETUP: AlphaScreen, biotinylated JQ1 10 nM, His-bromodomain 10 nM; NE = not efficient; read-out: BRDT-BD2 IC50
PARAMETER MEASURED: IC50

Study these solved cases before continuing.
MOLECULE | IC50
Cc1cc(=O)[nH]c2ccc(CC(=O)N3CCN(CCNC(=O)c4ccccn4)CC3)cc12 [CDD-778] | 71.8 µM
CNC(=O)C(CC1CCN(C(=O)Cc2ccc3[nH]c(=O)cc(C)c3c2)CC1)NC(=O)c1ccccn1 (stereo not shown) [CDD-784] | 19.4 µM
Cc1ccc(-c2ccc(C(=O)NC(C)CC3CCN(C(=O)Cc4ccc5[nH]c(=O)cc(C)c5c4)CC3)nc2)c(C)c1 (stereo not shown) [CDD-906] | 23.4 µM

GET IC50 where system = BRDT-BD2 (Homo sapiens, UniProt Q58F21) and item = CNC(=O)C(CC1CCN(C(=O)Cc2ccc3[nH]c(=O)ccc3c2)CC1)NC(=O)c1ccc(-c2ccccc2)cn1 (stereo not shown) [CDD-986]
20.9 µM

###

BRD4-BD1 vs. BRD4-BD2 fold (BRD4-BD1 selectivity) values, listed per item
# TARGET OF ASSAY: BRD4-BD1 (Homo sapiens, UniProt O60885)
# MEASUREMENT DESCRIPTION: AlphaScreen competition assay with biotinylated JQ1
# Assay type: binding
# Design: the bromodomain 1 (BD1) of BRD4; made in house; host or cells: bacteria (pET15b or pET28b vector)
# MEASUREMENT SETUP: ratio of AlphaScreen IC50 values; NE = not efficient

Use these answered entries as a reference point.
COMPOUND | READING
Cc1ccc(-c2ccc(C(=O)NCCC3CCN(C(=O)Cc4ccc5[nH]c(=O)cc(C)c5c4)CC3)nc2)c(C)c1 | 312 fold
CNC(=O)[C@@H](CC1CCN(C(=O)Cc2ccc3[nH]c(=O)cc(C)c3c2)CC1)NC(=O)c1ccc(-c2ccc(Cl)cc2)cn1 | 1,553 fold
CNC(=O)C(CC1CCN(C(=O)Cc2ccc3[nH]c(=O)cc(C)c3c2)CC1)NC(=O)c1ccc(-c2ccc(C)cc2C)cn1 (centres unmarked) | 4035 fold
CNC(=O)[C@@H](CC1CCN(C(=O)Cc2ccc3[nH]c(=O)cc(C)c3c2)CC1)NC(=O)c1ccc(-c2ccc(Cl)c(F)c2)cn1 | 1,423 fold
Cc1cc(=O)[nH]c2ccc(CC(=O)N3CCC(CCNC(=O)c4ccccn4)CC3)cc12 | 5,449 fold

Write BRD4-BD1 vs. BRD4-BD2 fold (BRD4-BD1 selectivity) of Cc1ccc(-c2ccc(C(=O)NC(C)CC3CCN(C(=O)Cc4ccc5[nH]c(=O)cc(C)c5c4)CC3)nc2)c(C)c1 (centres unmarked) ; system used: BRD4-BD1 (Homo sapiens, UniProt O60885)
381 fold

For BRD4-BD1 (Homo sapiens, UniProt O60885), give BRD4-BD1 vs. BRD4-BD2 fold (BRD4-BD1 selectivity) of the listed compound: CNC(=O)C(CC1CCN(C(=O)Cc2ccc3[nH]c(=O)cc(C)c3c2)CC1)NC(=O)c1ccccn1 (centres unmarked)
2,078 fold

Identify measured BRD4-BD1 vs. BRD4-BD2 fold (BRD4-BD1 selectivity) obtained with BRD4-BD1 (Homo sapiens, UniProt O60885) for CNC(=O)C(CC1CCN(C(=O)Cc2ccc3[nH]c(=O)ccc3c2)CC1)NC(=O)c1ccc(-c2ccccc2)cn1 (centres unmarked) .
2,352 fold
